- System: SK-OV-3
- assay_name: NCI tumour cell line growth inhibition, 48 h
Active and inactive are the calls of the source. Cut-off read from the data, not from the text of the source: active = GI50 up to about 1.1 µM and inactive = higher.
This section presents molecules with their documented GI50 values.

Record excerpt, results attached:
{"molecule": "COC(=O)[C@H](C)NC(=O)[C@H](NS(=O)(=O)c1nc2ccccc2s1)c1ccccc1", "subject_of_test": "SK-OV-3", "property_label": "GI50", "test_result": "33.2 µM (inactive)"}
{"molecule": "Cc1ccccc1NC(=O)C(=O)c1c(O)c2ccc(O)cc2oc1=O", "subject_of_test": "SK-OV-3", "property_label": "GI50", "test_result": "> 100 µM (inactive)"}

Could you now consider this next molecule?
Query Cc1cc(O)nc(NNC(C#N)c2ccc([N+](=O)[O-])cc2)n1 (stereo unspecified) yields GI50 of > 100 µM (inactive)

###

- System: HOP-62
- assay_name: NCI tumour cell line growth inhibition, 48 h
The source made the active and inactive calls. Cut-off read from the data, not from the text of the source: active = GI50 up to about 1.1 µM and inactive = higher. Where a SMILES comes first, the peptide text is derived from it. The star is where a group is joined. Fmoc = O=C(OCC1c2ccccc2-c2ccccc21)*; OBn = c1ccc(CO*)cc1; tBu = CC(C)(C)*
property_label: GI50

Record excerpt, results attached:
{"compound": "CC(=O)OCC1OC(n2c(-c3ccc(C)cc3)cc(-c3ccco3)c(C#N)c2=S)C(OC(C)=O)C(OC(C)=O)C1OC(C)=O (stereo not drawn)", "GI50": "42.7 µM (inactive)"}
{"compound": "O=C1c2ccccc2-c2nc3ccncc3n21", "GI50": "> 100 µM (inactive)"}

Query COC(=O)NC(=O)c1cn(CCCOC(=O)CCCCCCCCC(=O)OCCCn2cc(C(=O)NC(=O)OC)c(=O)[nH]c2=O)c(=O)[nH]c1=O yields GI50 of 23.1 µM (inactive)

Query CC(OC(C)(C)C)C(NC(=O)OCC1c2ccccc2-c2ccccc21)C(=O)NC(Cc1ccccc1)C(=O)OCc1ccccc1 (stereo not drawn) (Fmoc-Thr(tBu)-Phe-OBn; configuration not given here) yields GI50 of > 93.8 µM (inactive)

###

- System: SK-MEL-28
- assay_name: NCI tumour cell line growth inhibition, 48 h
Activity calls are given as the source filed them. No stated cut-off is given here; in the data, active = GI50 up to about 1.1 µM and inactive = higher.
This section presents compounds with their documented GI50 values.

{"compound": "O=C(c1ccccc1)N(C(=O)c1ccccc1)c1nc(SCc2ccccc2)ns1", "subject_of_test": "SK-MEL-28", "GI50": "30.8 µM (inactive)"}
{"compound": "C[C@]12CC[C@H](O)CC1=CC[C@@H]1C2CC[C@]2(C)c3nn(-c4ccc(F)cc4)nc3CC12 (stereo partly drawn)", "subject_of_test": "SK-MEL-28", "GI50": "> 100 µM (inactive)"}
{"compound": "CC1CCc2c(c(CC3CC(=O)NC(=O)C3)nn2-c2ccccc2)C1 (stereo not drawn)", "subject_of_test": "SK-MEL-28", "GI50": "> 100 µM (inactive)"}

Item CC(=O)NNc1nc(C)c(C(=O)/C=C/c2ccc(Cl)cc2)s1 ; assay system SK-MEL-28; GI50 reported as > 100 µM (inactive)

Item CCC(O)CC1OC2(CCC1C)CC1OC(=O)/C=C\C(C)(O)C(O)C(C)C(O)C(OC3CC(OC)C(O)C(C)O3)C(O)C(C)(O)CCC/C=C/C3CC(C)COC3(O)CC(O2)C1C (stereo not drawn) ; assay system SK-MEL-28; GI50 reported as 13.8 µM (inactive)

Item c1ccc(-c2cc(C3CO3)c3ccccc3n2)cc1 (stereo not drawn) ; assay system SK-MEL-28; GI50 reported as 38.5 µM (inactive)

Item O=c1cc(N=P(c2ccccc2)(c2ccccc2)c2ccccc2)n(-c2ccccc2)c(=O)n1-c1ccccc1 ; assay system SK-MEL-28; GI50 reported as 23.9 µM (inactive)

Item COC(=O)NC(=O)c1cn(CCCOC(=O)CCCCCCCCC(=O)OCCCn2cc(C(=O)NC(=O)OC)c(=O)[nH]c2=O)c(=O)[nH]c1=O ; assay system SK-MEL-28; GI50 reported as > 100 µM (inactive)

###

- System: ACHN
- assay_name: NCI tumour cell line growth inhibition, 48 h
Activity calls are given as the source filed them. Cut-off read from the data, not from the text of the source: active = GI50 up to about 1.1 µM and inactive = higher.
Please state which outcome applies, choosing from active, inactive

Below are worked cases with known answers.
{"molecule": "Cc1nn(C(=O)c2ccccc2O)c2c1C(c1ccc(O)cc1O)SC(=N)N2 (stereo not given)", "subject_of_test": "ACHN", "assigned_class": "inactive"}
{"molecule": "COCOCc1cc(OCc2ccccc2)c(OC)cc1Br", "subject_of_test": "ACHN", "assigned_class": "inactive"}

Tell me the assay call for CCOC(=O)c1c(N2CCCC2)[nH]c(=O)c(C(c2ccco2)c2c(O)c(C(=O)OCC)c(N3CCCC3)[nH]c2=O)c1O please. inactive

Tell me the assay call for CC(C)NC(=O)O/N=C1\CCC2[C@@H]3CC=C4C[C@@H](OC(=O)NC(C)C)CC[C@]4(C)C3CC[C@]12C (stereo not given in full) please. active

Tell me the assay call for Cc1ccccc1NC(=O)C(=O)c1c(O)c2ccc(O)cc2oc1=O please. inactive

###

- Test system: T47D
- assay_name: NCI tumour cell line growth inhibition, 48 h
Calls of active or inactive are those of the source. Rule as the data show it: active = GI50 up to about 1.1 µM and inactive = higher.
Please state which outcome applies, choosing from y (active), n (inactive)

Below are worked cases with known answers.
{"compound": "CC(C)=CCc1c(O)cc2oc(-c3ccc(O)cc3O)cc(=O)c2c1O", "assigned_class": "n"}
{"compound": "CCC(O)CC1OC2(CCC1C)CC1OC(=O)/C=C\\C(C)(O)C(O)C(C)C(O)C(OC3CC(OC)C(O)C(C)O3)C(O)C(C)(O)CCC/C=C/C3CC(C)COC3(O)CC(O2)C1C (stereo not given)", "assigned_class": "y"}
{"compound": "CCCC(CCC(N)=O)(CCC(N)=O)[N+](=O)[O-]", "assigned_class": "n"}

Tell me the assay call for CC1(C)CCCCCCCCCC(C)(CCCO)C1=O (stereo not given) please. n

Tell me the assay call for O=C(Sc1c(-c2ccccc2)c(=O)n(-c2ccccc2)c(=S)n1-c1ccccc1)c1ccc(Cl)cc1 please. n

###

- System: NCI-H23
- assay_name: NCI tumour cell line growth inhibition, 48 h
Calls of active or inactive are those of the source. No stated cut-off is given here; in the data, active = GI50 up to about 1.1 µM and inactive = higher.
Please state which outcome applies, choosing from active, inactive

Below are worked cases with known answers.
{"compound": "COc1ccc2c(c1)C(=O)[C@@](Nc1ccc(C=O)cc1)(OC)[C@@](OC)(c1ccc([N+](=O)[O-])cc1)O2", "assigned_class": "inactive"}
{"compound": "COC(=O)CNC(=O)CCC(C)[C@H]1CCC2C3C(C[C@H](OC(C)=O)[C@@]21C)[C@@]1(C)CCC2(C[C@H]1C[C@H]3OC(C)=O)OOC1(CC[C@]3(C)C4C[C@H](OC(C)=O)[C@@]5(C)C(CC[C@@H]5C(C)CCC(=O)NCC(=O)OC)C4[C@H](OC(C)=O)C[C@@H]3C1)OO2 (stereo partly drawn)", "assigned_class": "active"}

Tell me the assay call for CN(C)C1(C#N)CCC2(CC1)OCCO2 please. inactive

Tell me the assay call for CN(C(=O)C12C3C4C1C1C2C3C41C(O)C(C)(C)C)C(C)(C)C (stereo not drawn) please. inactive

Tell me the assay call for COc1cc2c(cc1OC)-c1c(oc3cc(OC4OC(CO)C(O)C(O)C4O)c(OC)cc3c1=O)C(O)O2 (stereo not drawn) please. inactive

###

- Tested on: SNB-19
- assay_name: NCI tumour cell line growth inhibition, 48 h
Active and inactive are the calls of the source. Cut-off read from the data, not from the text of the source: active = GI50 up to about 1.1 µM and inactive = higher.
property_label: GI50

{"molecule": "CC(NC(=O)C(Cc1ccc(OC(=O)c2ccccc2)cc1)NC(=O)OC(C)(C)C)C(=O)NCC(=O)NC(Cc1ccccc1)NC(=O)OCc1ccccc1 (stereo unspecified)", "GI50": "> 100 µM (inactive)"}
{"molecule": "CC1CCP(=O)(c2ccccc2)CC1 (stereo unspecified)", "GI50": "> 100 µM (inactive)"}
{"molecule": "COc1cc2c(cc1OC)-c1cc3ccccc3c(=O)n1CC2", "GI50": "43.7 µM (inactive)"}
{"molecule": "Cc1ccc(C)c(NC(=O)c2cccc([N+](=O)[O-])c2O)c1", "GI50": "34.4 µM (inactive)"}

Could you now consider this next molecule?
Query COc1cccc(C2c3cc4c(cc3OC(Nc3ccccc3)C2C)OCO4)c1OC (stereo unspecified) yields GI50 of > 100 µM (inactive)

###

- Tested on: SNB-75
- assay_name: NCI tumour cell line growth inhibition, 48 h
Calls of active or inactive are those of the source. Rule as the data show it: active = GI50 up to about 1.1 µM and inactive = higher.
property_label: GI50

{"compound": "CN(CCN(C)C(=O)CCOS(C)(=O)=O)C(=O)CCOS(C)(=O)=O", "subject_of_test": "SNB-75", "GI50": "> 100 µM (inactive)"}
{"compound": "C=C(C)C1CC(=O)C(C)=C(O)C1 (stereo unspecified)", "subject_of_test": "SNB-75", "GI50": "> 100 µM (inactive)"}
{"compound": "C=CC1=CC(C)C[C@]1(O)C(=O)OC (stereo partly specified)", "subject_of_test": "SNB-75", "GI50": "< 0.01 µM (active)"}
{"compound": "COC(=O)C1SC[C@H]2C(=O)N(c3ccccc3)C(=O)N12 (stereo partly specified)", "subject_of_test": "SNB-75", "GI50": "> 100 µM (inactive)"}
{"compound": "CCOC(=O)CCn1cnc(N)n1", "subject_of_test": "SNB-75", "GI50": "> 100 µM (inactive)"}
{"compound": "c1ccc(-c2cc(C3CO3)c3ccccc3n2)cc1 (stereo unspecified)", "subject_of_test": "SNB-75", "GI50": "25.9 µM (inactive)"}

Query Cc1ccc(-c2c(C#N)c(-c3ccc(N(C)C)cc3)c(C#N)c(=O)n2NS(=O)(=O)c2ccccc2)cc1 yields GI50 of 37 µM (inactive)

Query N#CC(C#N)=Cc1cccc(Oc2ccccc2)c1 yields GI50 of 29.2 µM (inactive)

Query COc1ccc2c(=O)c3cc([N+](=O)[O-])ccc3n(C)c2c1 yields GI50 of > 100 µM (inactive)

Query Cc1cc2c(-c3ccccc3)cc(=O)[nH]c2cc1N yields GI50 of > 100 µM (inactive)

Query Oc1cccnc1/C=N/OCc1ccccc1 yields GI50 of > 100 µM (inactive)
